# measurement_target: GST-tagged ROR gamma ligand binding domain (LBD) (Homo sapiens)
# Construct: purchased Invitrogen
# Sequence (P51449 269-508 limits assumed): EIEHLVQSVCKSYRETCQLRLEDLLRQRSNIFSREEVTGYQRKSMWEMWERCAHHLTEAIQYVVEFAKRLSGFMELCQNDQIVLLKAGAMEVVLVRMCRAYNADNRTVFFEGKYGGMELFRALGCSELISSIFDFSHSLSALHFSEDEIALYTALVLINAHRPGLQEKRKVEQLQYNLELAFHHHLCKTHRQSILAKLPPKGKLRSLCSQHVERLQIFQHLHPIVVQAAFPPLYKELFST
# assay_text: TR-FRET assay for ROR gamma (LanthaScreen co-activator peptide recruitment)
# Type: biochemical
# cond: compound concentration 1 μM; TR-FRET ratio 520/495, percent of control
observed_property: inhibition at 1 µM (%)
The figure you give is taken to be in %; do not add the unit.

The following molecules have reported results that may help.
{"columns": ["molecule", "measurement_target", "display_unit", "inhibition at 1 µM"],
 "data": [
  ["CCC(F)(F)c1ccc(CC(=O)Nc2ccc(-c3nccnc3-c3ccncc3)cc2)cc1", "GST-tagged ROR gamma ligand binding domain (LBD) (Homo sapiens)", "%", 60.5],
  ["CC(O)C(F)(F)c1ccc(CC(=O)Nc2ccc(-c3nccnc3-c3ccc(Cl)cc3)cc2)cc1 (stereo not shown)", "GST-tagged ROR gamma ligand binding domain (LBD) (Homo sapiens)", "%", 76.1],
  ["CCC(F)(F)c1ccc(CC(=O)Nc2ccc(-c3nccnc3N(C)[C@@H](C)c3ccccc3)cc2)cc1", "GST-tagged ROR gamma ligand binding domain (LBD) (Homo sapiens)", "%", 65.6],
  ["CCC(F)(F)c1ccc(CC(=O)Nc2ccc(-c3nccnc3O[C@@H](C)c3ccccc3)cc2)cc1", "GST-tagged ROR gamma ligand binding domain (LBD) (Homo sapiens)", "%", 69.5]
]}

Form field inhibition at 1 µM, entry "CCC(F)(F)c1ccc(CC(=O)Nc2ccc(-c3nccnc3N3CCN(CCOC)CC3)cc2)cc1" : 4.2

# molecule "CCC(F)(F)c1ccc(CC(=O)Nc2ccc(-c3nccnc3-c3ccccc3F)cc2)cc1" ; its inhibition at 1 µM = 78.8

# inhibition at 1 µM (molecule: CC(O)C(F)(F)c1ccc(CC(=O)Nc2ccc(-c3nccnc3N3CCN(C(=O)C4CC4)CC3)cc2)cc1 (stereo not shown) ) is 23.1

Sample Cc1ccc([C@H](C)Nc2nccnc2-c2ccc(NC(=O)Cc3ccc(C(F)(F)C(C)O)cc3)cc2)c(C)c1 (stereo partly shown) ; inhibition at 1 µM observed: 93.7

inhibition at 1 µM in this record for "CCC(F)(F)c1ccc(CC(=O)Nc2ccc(-c3nccnc3N(C)[C@H](C)c3ccccc3)cc2)cc1" : 69.6

Entry under test: "CCC(F)(F)c1ccc(CC(=O)Nc2ccc(-c3nccnc3N[C@@H](C)c3ccc(C)cc3C)cc2)cc1" . Its inhibition at 1 µM was 97

Summary for this molecule, "CCC(F)(F)c1ccc(CC(=O)Nc2ccc(-c3ccncc3-c3ccc(Cl)cc3)cc2)cc1" : inhibition at 1 µM is 70

The molecule listed as "CCC(F)(F)c1ccc(CC(=O)Nc2ccc(-c3nccnc3-c3ccccc3)cc2)cc1" shows inhibition at 1 µM equal to 72.2

Recorded inhibition at 1 µM (molecule "CCC(F)(F)c1ccc(CC(=O)Nc2ccc(-c3nccnc3N3CCN(C)CC3)cc2)cc1" ): 15.3

// field: inhibition at 1 µM; key: CC(O)C(F)(F)c1ccc(CC(=O)Nc2ccc(-c3nccnc3-c3ccc(F)c(F)c3)cc2)cc1 (stereo not shown) ; value = 55.2

Entry CC(O)C(F)(F)c1ccc(CC(=O)Nc2ccc(-c3nccnc3OCC3CCCCC3)cc2)cc1 (stereo not shown) ; inhibition at 1 µM = 86.6

The molecule identified as CC(O)C(F)(F)c1ccc(CC(=O)Nc2ccc(-c3nccnc3OCc3ccccc3Cl)cc2)cc1 (stereo not shown) registered its inhibition at 1 µM at 79.3
